- Test system: PC-3
- measurementDescription: NCI tumour cell line growth inhibition, 48 h
The source made the active and inactive calls. Rule as the data show it: active = GI50 up to about 1.1 µM and inactive = higher.
measure: GI50

Ask | Return reported GI50; argument: COc1ccc(N2C(=O)C3ON(Cc4ccc(CC(N)=O)cc4)C(c4c5ccccc5c(C)c5ccccc45)C3C2=O)cc1 (centres undefined)
Reply | 21.6 µM (inactive)

Ask | Continue with O=c1c(Br)c(-c2ccccc2)[s+]([O-])c2ccccc12 (centres undefined)
Reply | 7.78 µM (inactive)

Ask | Similarly, CC(=O)Oc1ccc(/C=C/C(=O)O[C@@H](C)[C@H](C)OC(=O)/C=C/c2ccc(OC(C)=O)c(OC(C)=O)c2)cc1OC(C)=O ?
Reply | 23.1 µM (inactive)

Ask | Now give it for Cc1ccc2c(c1C)C(=O)C1(Cc3cc4c(cc3C1=O)CCC4)C2 (centres undefined) too.
Reply | > 100 µM (inactive)

Ask | Can you handle O=C(Cc1nc2ncccc2[nH]c1=O)c1c[nH]c2ccccc12 next?
Reply | 16 µM (inactive)

Ask | Please do the same for NC1(CCNC(=O)c2ccccc2)CCN(C(=O)c2ccccc2)CC1 as well.
Reply | > 100 µM (inactive)

Ask | Moving on to the next molecule: O=c1cc(-c2ccccc2)oc2ccc(-c3ccc4oc(-c5ccccc5)cc(=O)c4c3)cc12
Reply | > 10 µM (inactive)

Ask | Queued: COC(=O)c1ccc2[nH]c3c(c2c1)CC(=O)Nc1ccccc1-3
Reply | > 100 µM (inactive)

Ask | Please give the result for CN[C@H]1CC[C@]23C[C@]24CC[C@]2(C)[C@@H]([C@H](C)N(C)C)CC[C@@]2(C)[C@@H]4CC[C@H]3C1(C)C too.
Reply | 9.08 µM (inactive)

Measured values drawn from ChEMBL document CHEMBL1201862 for this set.
